- TARGET_ENTITY: Alkaline phosphatase, tissue-nonspecific isozyme (Homo sapiens)
- METHOD: TNAP enzyme activity modulation, counter to mouse IAP activators, SAR follow-up, selectivity assay for mouse IAP activator project, biochemical, set 2 (AID 588605)
- CONDITION_INFO: SAR counter-screen for mouse IAP activators
Active and inactive are the calls of the source. No rule for the calls is given here.
Each record here notes measured EC50.

Solved cases below.
# COMPOUND, MEASUREMENT
measured = [
    ("CCOc1cc(CCNC(=S)Nc2ccc(S(=O)(=O)N(C)C)cc2)ccc1OC", "> 100 µM (inactive)"),
    ("CN(C)S(=O)(=O)c1ccc(NC(=S)NCc2ccc(Cl)cc2)cc1", "> 100 µM (inactive)"),
]

Q: Would you kindly share the measured EC50 for Cc1ccc(S(=O)(=O)N(C)C)cc1NC(=S)NC(C)CCC(C)C (stereo unspecified) ?
Result: 87.1 µM

Q: Follow-up entry: `CN(CCc1ccccn1)C(=S)Nc1cccc(S(=O)(=O)N(C)C)c1`
Result: > 100 µM (inactive)

Q: Also `O=S(=O)(c1ccc(NC(=S)NCC(c2ccccc2)c2ccccc2)cc1)N1CCCC1` ?
Result: 19.9 µM

Q: Param item: `Cc1ccc(CNC(=S)Nc2cccc(S(=O)(=O)N(C)C)c2)cc1`
Result: > 100 µM (inactive)

Q: Try this compound next: `CN(C)S(=O)(=O)c1cccc(NC(=S)NCC(c2ccccc2)c2ccccc2)c1`
Result: 22.9 µM

Q: Consider next the compound `CN(C)S(=O)(=O)c1cccc(NC(=S)NCCc2ccc(Br)cc2)c1` in the same way.
Result: 86.7 µM

Q: Also need `O=S(=O)(c1ccc(NC(=S)NCCC(c2ccccc2)c2ccccc2)cc1)N1CCCC1` , thanks.
Result: 49.8 µM

Q: Also need `COc1ccc(CNC(=S)Nc2ccc(S(=O)(=O)N3CCCCC3)cc2)cc1OC` , thanks.
Result: 75.3 µM

Q: Ok, now `Cc1ccc(S(=O)(=O)N(C)C)cc1NC(=S)NC1CCN(Cc2ccccc2)CC1`
Result: > 100 µM (inactive)

Q: Another compound: Cc1ccc(S(=O)(=O)N(C)C)cc1NC(=S)NC(C)CCCC(C)C (stereo unspecified)
Result: 57.9 µM

Q: Also `O=C(NC(=S)Nc1cc(S(=O)(=O)N2CCOCC2)ccc1N1CCOCC1)c1ccco1` ?
Result: > 100 µM (inactive)

Q: Same again, this time with `CN(C)S(=O)(=O)c1ccc(NC(=S)NCCc2ccccc2)cc1`
Result: > 100 µM (inactive)

Q: Another: `O=C(NC(=S)Nc1cc(S(=O)(=O)N2CCOCC2)ccc1O)c1ccco1`
Result: > 100 µM (inactive)

###

- TARGET_ENTITY: Alkaline phosphatase, tissue-nonspecific isozyme (Homo sapiens) (UniProt P05186)
- Sequence (P05186 whole entry, looked up): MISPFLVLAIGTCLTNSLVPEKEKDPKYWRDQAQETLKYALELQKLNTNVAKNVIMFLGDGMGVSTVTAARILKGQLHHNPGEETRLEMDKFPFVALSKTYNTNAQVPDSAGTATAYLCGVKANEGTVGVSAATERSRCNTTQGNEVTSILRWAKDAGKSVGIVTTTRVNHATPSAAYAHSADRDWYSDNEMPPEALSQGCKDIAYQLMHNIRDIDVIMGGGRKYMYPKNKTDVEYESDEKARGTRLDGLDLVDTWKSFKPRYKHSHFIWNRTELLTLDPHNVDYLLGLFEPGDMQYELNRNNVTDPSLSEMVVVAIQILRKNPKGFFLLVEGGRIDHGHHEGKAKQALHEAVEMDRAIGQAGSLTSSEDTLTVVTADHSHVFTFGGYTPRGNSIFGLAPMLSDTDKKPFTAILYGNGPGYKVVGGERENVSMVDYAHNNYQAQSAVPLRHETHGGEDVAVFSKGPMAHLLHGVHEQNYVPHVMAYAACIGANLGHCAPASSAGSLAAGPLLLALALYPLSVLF
- METHOD: TNAP enzyme activity modulation, counter to mouse IAP activators, SAR follow-up, selectivity assay for mouse IAP activator project, biochemical, set 2 (AID 588605)
- CONDITION_INFO: SAR counter-screen for mouse IAP activators
Calls of active or inactive are those of the source. No rule for the calls is given here.
Assign a class; possible classes are 1 (yes) = active, 0 (no) = inactive

Below are worked cases with known answers.
# COMPOUND, TARGET_ENTITY, ASSIGNED_LABEL
data = [
    ("CN(C)S(=O)(=O)c1cccc(NC(=S)NCCc2cccc(Br)c2)c1", "Alkaline phosphatase, tissue-nonspecific isozyme (Homo sapiens) (UniProt P05186)", "1 (yes)"),
    ("O=S(=O)(c1ccc(NC(=S)NC(c2ccccc2)c2ccccc2)cc1)N1CCCC1", "Alkaline phosphatase, tissue-nonspecific isozyme (Homo sapiens) (UniProt P05186)", "1 (yes)"),
    ("CC(CNC(=S)Nc1cccc(S(=O)(=O)N(C)C)c1)N1CCN(c2ccccc2)CC1 (stereo not given)", "Alkaline phosphatase, tissue-nonspecific isozyme (Homo sapiens) (UniProt P05186)", "0 (no)"),
    ("Cc1ccccc1CNC(=S)Nc1ccc(S(=O)(=O)N(C)C)cc1", "Alkaline phosphatase, tissue-nonspecific isozyme (Homo sapiens) (UniProt P05186)", "1 (yes)"),
    ("COc1cccc(CCNC(=S)Nc2cccc(S(=O)(=O)N(C)C)c2)c1", "Alkaline phosphatase, tissue-nonspecific isozyme (Homo sapiens) (UniProt P05186)", "1 (yes)"),
    ("CCN(CC)S(=O)(=O)c1ccc(NC(=S)NCCC(c2ccccc2)c2ccccc2)cc1", "Alkaline phosphatase, tissue-nonspecific isozyme (Homo sapiens) (UniProt P05186)", "1 (yes)"),
]

Q: Name the outcome recorded for `CN(CCc1ccccc1)C(=S)Nc1cccc(S(=O)(=O)N(C)C)c1` in the assay.
Result: 0 (no)

Q: Ok, now `CCN(CC)c1ccc(C(=O)NC(=S)Nc2cc(S(=O)(=O)N3CCOCC3)ccc2-n2cncn2)cc1`
Result: 0 (no)

Q: Now consider `CN(C)S(=O)(=O)c1cccc(NC(=S)NCCCn2ccnc2)c1` .
Result: 0 (no)

Q: Also `COc1ccc(CCNC(=S)Nc2ccc(S(=O)(=O)N3CCCCC3)cc2)cc1` , if possible.
Result: 1 (yes)

###

- TARGET_ENTITY: UniProt P05186
- METHOD: TNAP enzyme activity modulation, counter to mouse IAP activators, SAR follow-up, selectivity assay for mouse IAP activator project, biochemical, set 2 (AID 588605); call rule not given here
- CONDITION_INFO: SAR counter-screen for mouse IAP activators
# valid calls are active, inactive; nothing else

Q: Which outcome was assigned to `O=S(=O)(c1ccc(NC(=S)NCCC(c2ccccc2)c2ccccc2)cc1)N1CCCCC1` in this test?
Result: active

###

- TARGET_ENTITY: Alkaline phosphatase, tissue-nonspecific isozyme (Homo sapiens)
- METHOD: TNAP enzyme activity modulation, counter to mouse IAP activators, SAR follow-up, selectivity assay for mouse IAP activator project, biochemical, set 2 (AID 588605)
- CONDITION_INFO: SAR counter-screen for mouse IAP activators
Activity calls are given as the source filed them. How the calls were made is not given here.
EC50 values, listed per item

Past entries and their recorded results:
# COMPOUND, MEASUREMENT
records = [
    ("CN(C)CCCNC(=S)Nc1cccc(S(=O)(=O)N(C)C)c1", "> 100 µM (inactive)"),
    ("CN(C)S(=O)(=O)c1cccc(NC(=S)NCCc2cccc(O)c2)c1", "> 100 µM (inactive)"),
    ("CN(C)S(=O)(=O)c1cccc(NC(=S)NCCc2cccc(F)c2)c1", "> 100 µM (inactive)"),
    ("CN(C)S(=O)(=O)c1cccc(NC(=S)NCCN2CCCC2)c1", "> 100 µM (inactive)"),
    ("CN(C)S(=O)(=O)c1cccc(NC(=S)NCCCN2CCCC2=O)c1", "> 100 µM (inactive)"),
    ("O=S(=O)(c1ccc(NC(=S)NC(c2ccccc2)c2ccccc2)cc1)N1CCCCC1", "11 µM"),
]

Q: Notebook entry, Alkaline phosphatase, tissue-nonspecific isozyme (Homo sapiens) assay: EC50 of `COc1cccc(CNC(=S)Nc2ccc(S(=O)(=O)N(C)C)cc2)c1` = ?
Result: > 100 µM (inactive)

Q: Request: `CN(C)S(=O)(=O)c1ccc(NC(=S)NCC(c2ccccc2)c2ccccc2)cc1`
Result: 95.2 µM

Q: Item: `CCN(CC)CCCNC(=S)Nc1cccc(S(=O)(=O)N(C)C)c1`
Result: > 100 µM (inactive)

Q: Follow-up entry: `CN(C)S(=O)(=O)c1cccc(NC(=S)NCCC(c2ccccc2)c2ccccc2)c1`
Result: > 100 µM (inactive)

Q: Continue with `O=c1c2ccccc2[nH]c(=S)n1-c1cccc(S(=O)(=O)N2CCCC2)c1`
Result: > 100 µM (inactive)

Q: Query `CN(C)S(=O)(=O)c1cccc(NC(=S)NCCc2ccc(F)cc2)c1` next
Result: > 100 µM (inactive)

Q: Next up: `Cc1ccc(C)c(NC(=S)Nc2ccc(S(=O)(=O)N3CCCCC3)cc2)c1`
Result: > 100 µM (inactive)

Q: Same again, this time with CC1CC(NC(=S)Nc2cccc(S(=O)(=O)N(C)C)c2)CC(C)N1 (stereo unspecified)
Result: > 100 µM (inactive)

Q: Follow-up item: `CN(C)S(=O)(=O)c1cccc(NC(=S)NC(c2ccccc2)c2ccccc2)c1`
Result: 20 µM

Q: Please answer likewise for `CN(C)S(=O)(=O)c1ccc(NC(=S)NCCc2cccc(Br)c2)cc1`
Result: 65.5 µM

Q: Again, but for `COc1ccccc1CNC(=S)Nc1ccc(S(=O)(=O)N(C)C)cc1`
Result: 89.9 µM

Q: // repeat for `O=S(=O)(c1ccc(NC(=S)NCC(c2ccccc2)c2ccccc2)cc1)N1CCCCC1` and report
Result: 25.5 µM

Q: Now consider `CCN(CC)S(=O)(=O)c1ccc(NC(=S)NC(c2ccccc2)c2ccccc2)cc1` and answer again.
Result: 29 µM

Q: What about `CN(C)S(=O)(=O)c1ccc(NC(=S)NCCC(c2ccccc2)c2ccccc2)cc1` ?
Result: 38.6 µM

Q: What do you get for `COc1ccc(CCNC(=S)Nc2ccc(S(=O)(=O)N3CCCCC3)cc2)cc1OC` ?
Result: 94.4 µM

Just for reference, PubChem BioAssay AID588605 is where these values come from.
